Reference source: patent US20230131402A1

assay: Oral pharmacokinetics (plasma, brain, CSF); details: rat, per os, 10 mg/kg, brain
endpoint_name: Brain Cmax (ng/mL)

{"compound": "CN1CCN(Cc2ccccc2)C2(CCNC2=O)C1 (centres unmarked) [ES-316]", "Brain Cmax, ng/mL": 1583}
{"compound": "CN1CCN(C(=O)OC(C)(C)C)CC12CN(CC(N)=O)C2=O (centres unmarked) [ER-117]", "Brain Cmax, ng/mL": 121}
{"compound": "CN1CCN(Cc2ccccc2)C2(CNC2=O)C1 (single isomer, unassigned) [EG-1]", "Brain Cmax, ng/mL": 334.3}
{"compound": "O=C1NCC12CNCCN2Cc1ccccc1 (single isomer, unassigned) [ED-2]", "Brain Cmax, ng/mL": 478.5}

(1) C[C@@H](O)[C@H](N)C(=O)N1CCN(Cc2ccccc2)C2(CNC2=O)C1 (single isomer, unassigned) [EL-1]
(2) CC(=O)N1CCN(Cc2ccccc2)C2(CCNC2=O)C1 (centres unmarked) [ES-319]
(3) C[C@@H](O)[C@H](N)C(=O)N1CCNC2(CNC2=O)C1 (single isomer, unassigned) [EK-1]
(4) C[C@@H](O)[C@H](N)C(=O)N1CCNC2(CCNC2=O)C1 (some centres unmarked) [ES-336]
Challenge: Kindly order the items shown according to Brain Cmax, from the highest value down. To answer, arrange all of the labels according to the requested order.
Response given: 2, 1, 4, 3

* * *

Recorded % reduction in float time for the following compounds
system: rats' response (reduced floating time); test: Porsolt forced swim test; assay type: in vivo, Sprague Dawley rats; settings: 1 h post-dose, 0.1 mg/kg, relative to vehicle group; 0.1 mg/kg
Give the quantity in %, number only.

Worked cases, answers included:
{"compound": "C[C@@H](O)[C@H](N)C(=O)N1CCNC2(CCNC2=O)C1 (stereo partly shown) [ES-335]", "recorded_value": 58.5}
{"compound": "C[C@@H](O)[C@H](N)C(=O)N1CCNC2(CCNC2=O)C1 (stereo partly shown) [ES-336]", "recorded_value": 81.6}
{"compound": "CN1CCN(Cc2ccccc2)C2(CCNC2=O)C1 (stereo not shown) [ES-315]", "recorded_value": 44.1}

Challenge: Request - read-out % reduction in float time | tested on rats' response (reduced floating time) | compound CN1CCN(Cc2ccccc2)C2(CCNC2=O)C1 (stereo not shown) [ES-316]
Response given: 49.4

* * *

Catalogue of AUClast readings, one per entry.
test: Oral pharmacokinetics (plasma, brain, CSF); details: rat, per os, 10 mg/kg, normal saline (compounds marked * in 1% NMP and 99% normal saline)
Value expressed in ng·h/mL; do not type the unit.

Worked cases, answers included:
{"compound": "O=C1NCC12CNCCN2Cc1ccccc1 (single isomer, unassigned) [ED-1]", "reading_unit": "ng·h/mL", "AUClast": 7053.49}
{"compound": "CN1CCN(Cc2ccccc2)C2(CNC2=O)C1 (single isomer, unassigned) [EG-2]", "reading_unit": "ng·h/mL", "AUClast": 3082.39}
{"compound": "O=C1NCC12CNCCN2Cc1ccccc1 (single isomer, unassigned) [ED-2]", "reading_unit": "ng·h/mL", "AUClast": 2178.53}

Attention now shifts to the item below.
Challenge: Could you tell me which AUClast is on file for CN1CCN(Cc2ccccc2)C2(CNC2=O)C1 (single isomer, unassigned) [EG-1] ?
Response given: 428.79
